Measured values drawn from PubChem BioAssay (NCI) for this set.

Test system: RPMI-8226 leukemia
measurement-notes: NCI-60 one-dose screen, 48 h (100 = growth as untreated, 0 = no growth, -100 = all killed)
recorded-conditions: 10 µM unless noted
Compounds without any hit were thinned out: in the full panel of roughly 83,000, 20% have a hit.
readout-kind: growth (%)
Reply numerically in %, unit not repeated.

# count of solved cases: 5
compound | target-desc | growth [%]
COC(=O)c1c2c(c(C)[n+]([O-])c1C)C(=O)C(NCc1ccc(Br)cc1)=CC2=O | RPMI-8226 leukemia | 47.6
O=c1oc2ccc(I)cc2c(=O)n1-c1ccc(Br)cc1F | RPMI-8226 leukemia | -26.2
COc1ccc(-c2c(-c3ccc(OC)c(O)c3)cnc3ncnn23)cc1 | RPMI-8226 leukemia | 108
CN(O)c1nc(N(C)O)nc(N2CCOCC2)n1 | RPMI-8226 leukemia | 36.8
COc1ccc(OC)c(/C=C/C(=O)c2c(C)nc3ccccc3c2/C=C/c2ccccc2)c1 | RPMI-8226 leukemia | 19.5

QUERY: Looking for the measured growth of `O=C(Nc1ccc(F)cc1F)c1cc(Br)ccc1O` , can you help?
RESULT: -10.4

QUERY: Next entry: COc1ccc(CN2CCCC(C(=O)c3ccc(C(F)(F)F)cc3)C2)c(O)c1 (stereo unspecified)
RESULT: 11.8

QUERY: Next entry: `COc1cc(/C=C2\CCC/C(=C\c3cc(CN4CCCCC4)c(O)c(OC)c3)C2=O)cc(CN2CCCCC2)c1O`
RESULT: 55.5

QUERY: Next entry: `CCn1c(-c2nonc2Nc2ccc(OC)cc2)nc2ccccc21`
RESULT: 117

QUERY: Next entry: `CNCCNc1nc2ccccc2c2c(=O)c3cccc(OC)c3sc12`
RESULT: -31.4

QUERY: Next entry: `COC(=O)/C(CCC=C(C)C)=C1\[C@@H](OC(C)=O)C[C@@]2(C)[C@H]1C[C@@H](O)[C@H]1[C@@]3(C)CC[C@H](NC(=O)c4cnccn4)[C@@H](C)[C@@H]3CC[C@@]12C`
RESULT: 75.8

QUERY: Next entry: O=C(NN1C(=O)CSC1c1ccc(Cl)cc1)c1[nH]c2ccc(F)cc2c1-c1ccccc1 (stereo unspecified)
RESULT: 25

QUERY: Next entry: `CN1CCN(Cc2ccc(NC(=O)c3[nH]ncc3Nc3cc(OC4CCCC4)ncn3)cc2)CC1`
RESULT: 16.9

QUERY: Next entry: `COc1ccc(/C=C2\NC(=O)NC2=O)cc1O`
RESULT: 101

QUERY: Next entry: COc1ccc(C2NCCc3c2[nH]c2ccccc32)cc1CN1CCN(c2ccc(F)cc2)CC1 (stereo unspecified)
RESULT: -10

QUERY: Next entry: C=C(C)CCC(C)N1CCC(N2CCC(C(=O)NCCc3ccccc3)CC2)CC1 (stereo unspecified)
RESULT: 4.75

QUERY: Next entry: COc1ccccc1CNC(=O)C1c2ccccc2C(=O)N(CC(C)C)C1c1cccs1 (stereo unspecified)
RESULT: 2.15

QUERY: Next entry: `O=C1OC(c2ccccc2)(c2ccccc2)c2ccsc21`
RESULT: 89.1

====

growth reference
Tested on: UACC-257 melanoma
measurement-notes: NCI-60 one-dose screen, 48 h (100 = growth as untreated, 0 = no growth, -100 = all killed)
recorded-conditions: 10 µM unless noted
Protocol: Cells are grown in 96 well plates and exposed to the test compound for 48 hours. Compounds are tested at a single concentration, which is 10^-5 M for most compounds. The reported endpoint is percent growth (GI% or GIPRCNT), where numbers from 0 - 100% represent growth inhibition, and numbers from -100% - 0 represent cell death. For example, a value of 40 represents 60% growth inhibition. A value of 0 means no net growth occurred over the course of the experiment. […]
This is part of a sample that, as a whole, favours compounds with a hit. Of some 83,000 tested, about 20% had one in any assay.
Reply numerically in %, unit not repeated.

# count of solved cases: 4
compound | growth [%]
NCCNc1nc2ccc(F)cc2c2c(=O)c3cc(F)ccc3sc12 | 79.4
O=C(NC1C(O)OC(CO)C(O)C1O)NS(=O)(=O)c1ccc(Cl)cc1 (stereo not given) | 104
CS(=O)(=O)Nc1ccc(C(=O)NC(C(=O)NO)c2ccc(-c3cccc(F)c3)cc2)cc1 (stereo not given) | 101
CC1=C(CC(=O)c2cccc([N+](=O)[O-])c2)C(=O)c2ccccc2C1=O | -13.7

Then there is this compound:
QUERY: Looking for the measured growth of O=C(c1nc2ccccc2[nH]1)C1[C@@H](c2cccc(O)c2)C2CC3CCCCC3N2[C@@]12C(=O)Nc1cc(Cl)ccc12 (stereo not given in full) , can you help?
RESULT: 48.9
